Where do the numbers come from? From the MegaScale stability set (Tsuboyama et al. 2023).

B1: 1ZHC (parent)
chain: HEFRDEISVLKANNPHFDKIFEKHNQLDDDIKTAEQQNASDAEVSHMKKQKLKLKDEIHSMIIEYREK

variants of: B1; assay: folding stability dG (cDNA display proteolysis); higher = more stable; conditions: PBS, room temperature
In this section, each of the variants is paired with its reported folding stability dG.

mutationNotation	unitOfMeasurement	folding stability dG
I63M	kcal/mol	1.4
V9N	kcal/mol	0.901
Y65M	kcal/mol	0.384
K48W	kcal/mol	0.118
N25S	kcal/mol	0.766
H1N	kcal/mol	0.835
E64Y	kcal/mol	0.484
P15F	kcal/mol	-0.013
M61L	kcal/mol	0.762
L52V	kcal/mol	0.329
D5P	kcal/mol	-0.163
